These entries and their values trace back to patent US5493007A.

Catalogue of Rabbit BT Ratio values
# Test system: New Zealand White rabbits
# test-summary: Rabbit cutaneous bleeding time (CBT)
# measurement-parameters: rabbit, Example 1; at the % P.A. inhibition given
Where a SMILES comes first, the peptide text is derived from it. Bridges are numbered along the chain shown (N, C = ends). [ ]: non-standard residue; d: D form. The star is where a group is joined. Orn = NCCC[C@H](N)C(=O)O; NH(CH2)4NH2 = NCCCCN*
Respond numerically, and do not add a unit to the figure.

### Prompt Notebook: pull reported Rabbit BT Ratio for New Zealand White rabbits, entry N=C(N)NCCC[C@@H]1NC(=O)[C@@H](Cc2ccc(O)cc2)NC(=O)CSC[C@@H](C(=O)N[C@@H](CCCN)C(N)=O)NC(=O)[C@H](CC(=O)O)NC(=O)CNC1=O [7/5] ({CH2CO}-[dY]RGDC[Orn]-NH2; thioether N-5)
### Response 1.26

### Prompt Notebook: pull reported Rabbit BT Ratio for New Zealand White rabbits, entry N=C(N)NCCC[C@@H]1NC(=O)[C@@H](Cc2ccc(O)cc2)NC(=O)CSC[C@@H](C(=O)NCCCCN)NC(=O)[C@H](CC(=O)O)NC(=O)CNC1=O [8/12] ({CH2CO}-[dY]RGDC-{NH(CH2)4NH2}; thioether N-5)
### Response 0.94

### Prompt Notebook: pull reported Rabbit BT Ratio for New Zealand White rabbits, entry N=C(N)NCCC[C@H](NC(=O)[C@H](Cc1ccc(O)cc1)NC(=O)[C@@H]1CSCC(=O)N[C@H](Cc2ccc(O)cc2)C(=O)N[C@@H](CCCNC(=N)N)C(=O)NCC(=O)N[C@@H](CC(=O)O)C(=O)N1)C(N)=O [7/7] ({CH2CO}-[dY]RGDCYR-NH2; thioether N-5)
### Response 4.10

### Prompt Notebook: pull reported Rabbit BT Ratio for New Zealand White rabbits, entry N=C(N)NCCC[C@@H]1NC(=O)[C@@H](Cc2ccc(O)cc2)NC(=O)C[S+]([O-])C[C@@H](C(=O)N[C@H](CCCNC(=N)N)C(N)=O)NC(=O)[C@H](CC(=O)O)NC(=O)CNC1=O (single isomer, unassigned) [7/34]
### Response 0.94
